Below, each entry is listed with its recorded IC50.
Biological target: recombinant human MAO-A (Homo sapiens, UniProt P21397)
Sequence (P21397 1-527): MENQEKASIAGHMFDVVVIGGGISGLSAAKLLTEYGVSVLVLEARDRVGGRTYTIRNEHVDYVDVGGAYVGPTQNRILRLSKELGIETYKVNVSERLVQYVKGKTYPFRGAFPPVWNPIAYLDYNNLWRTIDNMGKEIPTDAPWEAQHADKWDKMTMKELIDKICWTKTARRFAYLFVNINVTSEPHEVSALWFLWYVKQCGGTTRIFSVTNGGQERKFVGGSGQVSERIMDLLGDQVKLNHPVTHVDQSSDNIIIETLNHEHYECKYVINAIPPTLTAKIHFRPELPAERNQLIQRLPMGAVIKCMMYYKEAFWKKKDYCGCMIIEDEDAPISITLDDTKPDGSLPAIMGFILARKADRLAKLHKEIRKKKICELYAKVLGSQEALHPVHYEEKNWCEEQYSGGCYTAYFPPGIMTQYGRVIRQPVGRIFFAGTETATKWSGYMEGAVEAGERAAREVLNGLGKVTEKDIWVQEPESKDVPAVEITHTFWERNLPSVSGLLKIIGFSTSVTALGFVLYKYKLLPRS
Assay: hMAO-A inhibition, spectrophotometric assay

Below are worked cases with known answers.
ITEM SMILES: COc1ccc(OC)c(/C=C2\Oc3cc(O)ccc3C2=O)c1
MEASURED QUANTITY: IC50
REPORTED MEASUREMENT: > 10 µM
//
ITEM SMILES: O=C1/C(=C/c2ccc(O)c(O)c2)Oc2cc(O)ccc21
MEASURED QUANTITY: IC50
REPORTED MEASUREMENT: 4.66 µM
//
ITEM SMILES: COc1ccc2c(c1)O/C(=C\c1ccc(O)cc1)C2=O
MEASURED QUANTITY: IC50
REPORTED MEASUREMENT: > 100 µM
//
ITEM SMILES: COc1ccc2c(c1)O/C(=C\c1ccc(O)c(O)c1)C2=O
MEASURED QUANTITY: IC50
REPORTED MEASUREMENT: 5.62 µM
//
ITEM SMILES: COc1ccc(/C=C2\Oc3cc(O)ccc3C2=O)cc1OC
MEASURED QUANTITY: IC50
REPORTED MEASUREMENT: > 10 µM
//
ITEM SMILES: COc1ccc2c(c1)O/C(=C\c1cccc(O)c1)C2=O
MEASURED QUANTITY: IC50
REPORTED MEASUREMENT: > 10 µM
//
ITEM SMILES: O=C1/C(=C/c2cc(O)ccc2O)Oc2cc(O)ccc21
MEASURED QUANTITY: IC50
REPORTED MEASUREMENT: 7.77 µM
//
ITEM SMILES: COc1ccc(/C=C2\Oc3cc(O)ccc3C2=O)cc1
MEASURED QUANTITY: IC50
REPORTED MEASUREMENT: 6.98 µM
//
ITEM SMILES: O=C1/C(=C/c2cc(O)c(O)c(O)c2)Oc2cc(O)ccc21
MEASURED QUANTITY: IC50
REPORTED MEASUREMENT: > 10 µM
//
ITEM SMILES: COCOc1ccc(/C=C2\Oc3cc(O)ccc3C2=O)cc1
MEASURED QUANTITY: IC50
REPORTED MEASUREMENT: > 100 µM

Query block: Form entry - test system: recombinant human MAO-A (Homo sapiens, UniProt P21397); read-out: IC50; compound: `COc1ccccc1/C=C1\Oc2cc(O)ccc2C1=O`
Result block: > 100 µM

Query block: Form entry - test system: recombinant human MAO-A (Homo sapiens, UniProt P21397); read-out: IC50; compound: `O=C1/C(=C/c2cccc(O)c2O)Oc2cc(O)ccc21`
Result block: > 10 µM

Query block: Form entry - test system: recombinant human MAO-A (Homo sapiens, UniProt P21397); read-out: IC50; compound: `O=C1/C(=C/c2cc(O)cc(O)c2)Oc2cc(O)ccc21`
Result block: > 10 µM

Query block: Form entry - test system: recombinant human MAO-A (Homo sapiens, UniProt P21397); read-out: IC50; compound: `COc1ccc2c(c1)O/C(=C\c1ccc(O)cc1O)C2=O`
Result block: 8.2 µM

Query block: Form entry - test system: recombinant human MAO-A (Homo sapiens, UniProt P21397); read-out: IC50; compound: `COc1ccc2c(c1)O/C(=C\c1cccc(O)c1O)C2=O`
Result block: 7.04 µM
